molecular target: human Cystic Fibrosis Transmembrane Conductance Regulator (CFTR) harboring the ΔF508 mutation (Homo sapiens, UniProt P13569, DEL508-508); construct: expressed in transfected cells; host or cells: H441 carcinoma line (G418-selected); test: H441 cell ΔF508-CFTR-HRP cell surface assay (Emax and EC50); format: cell-based
Sequence (P13569 with tags, fused parts or gaps DEL508-508): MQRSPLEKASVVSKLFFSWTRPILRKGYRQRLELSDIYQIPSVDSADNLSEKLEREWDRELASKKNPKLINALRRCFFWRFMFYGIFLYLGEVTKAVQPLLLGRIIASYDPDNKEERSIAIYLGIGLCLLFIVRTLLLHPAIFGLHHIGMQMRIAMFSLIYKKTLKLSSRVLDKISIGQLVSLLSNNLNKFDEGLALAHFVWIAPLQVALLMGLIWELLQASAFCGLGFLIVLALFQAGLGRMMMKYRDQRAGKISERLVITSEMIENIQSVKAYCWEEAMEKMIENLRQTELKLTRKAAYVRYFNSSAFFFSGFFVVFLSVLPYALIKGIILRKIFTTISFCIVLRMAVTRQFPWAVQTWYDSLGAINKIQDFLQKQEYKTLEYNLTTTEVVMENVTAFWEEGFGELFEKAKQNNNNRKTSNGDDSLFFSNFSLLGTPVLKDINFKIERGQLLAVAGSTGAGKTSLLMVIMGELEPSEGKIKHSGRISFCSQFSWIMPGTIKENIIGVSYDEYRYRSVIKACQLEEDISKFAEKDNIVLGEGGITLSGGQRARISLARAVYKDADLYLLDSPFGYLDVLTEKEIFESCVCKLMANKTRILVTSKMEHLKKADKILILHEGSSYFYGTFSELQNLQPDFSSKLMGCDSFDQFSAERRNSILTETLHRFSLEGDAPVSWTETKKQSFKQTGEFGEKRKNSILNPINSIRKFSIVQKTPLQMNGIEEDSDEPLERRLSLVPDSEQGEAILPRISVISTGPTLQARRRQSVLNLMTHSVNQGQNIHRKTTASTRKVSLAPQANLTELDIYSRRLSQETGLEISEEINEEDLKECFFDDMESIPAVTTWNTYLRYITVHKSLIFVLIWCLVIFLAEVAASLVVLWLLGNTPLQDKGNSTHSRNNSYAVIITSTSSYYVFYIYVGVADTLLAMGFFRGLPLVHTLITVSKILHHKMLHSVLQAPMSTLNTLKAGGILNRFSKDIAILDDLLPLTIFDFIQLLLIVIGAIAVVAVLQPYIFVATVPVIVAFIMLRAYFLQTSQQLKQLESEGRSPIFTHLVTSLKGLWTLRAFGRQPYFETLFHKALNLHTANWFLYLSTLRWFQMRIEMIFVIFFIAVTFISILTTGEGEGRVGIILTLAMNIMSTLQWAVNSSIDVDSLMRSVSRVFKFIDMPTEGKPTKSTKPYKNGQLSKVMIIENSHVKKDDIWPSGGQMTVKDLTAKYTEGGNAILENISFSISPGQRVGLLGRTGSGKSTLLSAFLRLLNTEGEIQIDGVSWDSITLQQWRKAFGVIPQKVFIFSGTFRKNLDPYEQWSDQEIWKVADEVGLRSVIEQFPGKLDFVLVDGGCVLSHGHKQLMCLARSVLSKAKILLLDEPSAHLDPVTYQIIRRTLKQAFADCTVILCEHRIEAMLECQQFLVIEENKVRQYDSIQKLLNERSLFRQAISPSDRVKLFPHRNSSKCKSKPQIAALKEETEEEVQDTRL
Please provide measured pEC50 for the entries that follow.
pEC50 field: float, defined as -log10 of concentration (mol/L).

pEC50 reported for this molecule CCC(C)(C)[C@H](NC(=O)c1ccc2ccc(C)cc2c1OCc1ccc(C(F)(F)F)cc1)C(=O)O : 7.00

pEC50 reported for this molecule Cc1ccc2ccc(C(=O)N[C@H](C(=O)O)C(C)(C)C)c(OCc3ccc(OC(F)(F)F)cc3)c2c1 : 6.70

pEC50 reported for this molecule CCCC(C)(C)[C@H](NC(=O)c1ccc2ccc(C(F)(F)F)cc2c1OCc1ccc(C(F)(F)F)cc1)C(=O)O : 7.00

pEC50 reported for this molecule C[C@@H](OC(C)(C)C)C(NC(=O)c1ccc2ccccc2c1OCc1ccc(C(F)(F)F)cc1)C(=O)O (stereo partly shown) : 5.92
